Entry source: ChEMBL document CHEMBL3124880

- experimental-details: Inhibition of Bacillus subtilis Sfp-PPTase using rhodamine-CoA/BHQ-2-YbbR as substrate preincubated for 15 mins followed by substrate addition by HTS assay
pIC50: −log10 of the molar value.
We use 6 as the dividing line for pIC50: on or above the line is rule met, below is rule not met.

>>> label_class("COc1ccnc(NC(=S)N2CCN(c3ncc(C(F)(F)F)cc3Cl)CC2)c1")
"rule met"
>>> label_class("Cc1cc(C)nc(NC(=S)N2CCN(c3ccc(Cl)cc3C(F)(F)F)CC2)c1")
"rule met"
>>> label_class("Cc1cc(C)nc(NC(=S)N2CCN(c3cccc(C#N)c3)CC2)c1")
"rule not met"
>>> label_class("Cc1ccnc(NC(=N)N2CCN(c3cccc(C(F)(F)F)c3)CC2)c1")
"rule not met"
>>> label_class("Cc1cc(C)nc(NC(=C(C#N)C#N)N2CCN(c3cccc(C(F)(F)F)c3)CC2)c1")
"rule not met"
>>> label_class("Cc1cccc(NC(=S)N2CCN(c3cccc(C(F)(F)F)c3)CC2)c1")
"rule not met"
>>> label_class("Cc1ccnc(NC(=S)NC2CCN(c3cccc(C(F)(F)F)c3)CC2)c1")
"rule not met"
>>> label_class("COc1cc(OC)cc(N2CCN(C(=S)Nc3cc(C)cc(C)n3)CC2)c1")
"rule not met"
>>> label_class("Cc1ccnc(NC(=S)Nc2cccc(C(F)(F)F)c2)c1")
"rule not met"
>>> label_class("Cc1cc(C)nc(NC(=S)N2CCNCC2)c1")
"rule not met"

# input Confirm if pIC50 reported for the molecule FC(F)(F)c1cccc(N2CCN(C(=S)Nc3cc(C(F)(F)F)ccn3)CC2)c1 is 6 or above.
# output rule not met

# input Confirm if pIC50 reported for the molecule Cc1ccnc(NC(=S)NC2CN(c3cccc(C(F)(F)F)c3)C2)c1 is 6 or above.
# output rule not met

# input Confirm if pIC50 reported for the molecule Cc1ccnc(NC(=S)N2CCN(C)CC2)c1 is 6 or above.
# output rule not met

###

# key: entry, value: IC50
- experimental-details: Inhibition of Bacillus subtilis Sfp-PPTase using rhodamine-CoA/BHQ-2-YbbR as substrate preincubated for 15 mins followed by substrate addition by HTS assay
Please reply with the bare figure in µM and do not write the unit itself.

>>> numeric_value("Cc1cc(C)nc(NC(=S)N2CCN(c3cc(Cl)cc(Cl)c3)CC2)c1")
0.85

# input Given Cc1cc(C)nc(NC(=S)N2CCN(c3cc(F)cc(F)c3)CC2)c1 , respond with its IC50.
# output 1.3

# input Given Cc1cc(C)nc(NC(=S)N2CCN(c3nnc(C(F)(F)F)s3)CC2)c1 , respond with its IC50.
# output 1.6

# input Given Cc1ccnc(NC(=S)N2CCN(c3ccccc3C(F)(F)F)CC2)c1 , respond with its IC50.
# output 0.61

# input Given Cc1cc(C)nc(NC(=S)N2CCN(S(=O)(=O)c3cccc(C(F)(F)F)c3)CC2)c1 , respond with its IC50.
# output 0.81

###

# key: entry, value: pIC50
- experimental-details: Inhibition of Bacillus subtilis Sfp-PPTase using rhodamine-CoA/BHQ-2-YbbR as substrate preincubated for 15 mins followed by substrate addition by HTS assay
Lab note: report pIC50 as minus log10 of the concentration in molar units, number only.

Known results for compounds:
>>> numeric_value("Cc1cc(C)nc(NC(=S)N2CCN(c3ccc(Cl)c(Cl)c3)CC2)c1")
6.04
>>> numeric_value("Cc1ccnc(NC(=S)N2CC3CN(c4cccc(C(F)(F)F)c4)CC3C2)c1 (centres undefined)")
6.14
>>> numeric_value("Cc1cc(C)nc(NC(=S)N2CCN(c3ccc(Cl)c(Cl)c3Cl)CC2)c1")
6.14
>>> numeric_value("Cc1ccnc(NC(=S)N2CCN(c3cccc(C(F)(F)F)c3)CC2)c1")
6.11
>>> numeric_value("Cc1cc(C)nc(NC(=S)N2CCN(c3ccc(Cl)cc3Cl)CC2)c1")
6.00

# input Given FC(F)(F)c1cccc(N2CCN(C(=S)Nc3ccc4cccnc4n3)CC2)c1 , respond with its pIC50.
# output 6.00

# input Given FC(F)(F)c1cccc(N2CCN(C(=S)Nc3ccc4ccccc4n3)CC2)c1 , respond with its pIC50.
# output 5.82

# input Given COc1ccnc(NC(=S)N2CCN(c3cccc(C(F)(F)F)c3)CC2)c1 , respond with its pIC50.
# output 5.92

# input Given Cc1ccnc(NC(=S)N2CCC(Nc3cccc(C(F)(F)F)c3)CC2)c1 , respond with its pIC50.
# output 6.09
